# PROCEDURE_TEXT: Antiproliferative activity against human SF268 cells assessed as cell growth at 10^-5 M after 48 hrs by sulforhodamine B assay
# Format: functional
# CONDITION_SUMMARY: SF-268, 48 h, read-out: Activity
Definition: the class of an entry is the range in group A: < 10%; group B: ≥ 10% and < 90%; group C: ≥ 90% that contains its growth at 10 µM.

Example entries and their recorded answers appear below.
cpd_smiles=CNC(=O)c1cc(Oc2ccc3nc(NC(=O)Nc4ccc(F)cc4F)sc3c2)ccn1 label_class="group B"
cpd_smiles=CNC(=O)c1cc(Oc2ccc3nc(NC(=O)Nc4cc(C(F)(F)F)cc(C(F)(F)F)c4)sc3c2)ccn1 label_class="group A"
cpd_smiles=CNC(=O)c1cc(Oc2ccc3nc(NC(=O)c4ccc(Cl)c(C(F)(F)F)c4)sc3c2)ccn1 label_class="group B"
cpd_smiles=CNC(=O)c1cc(Oc2ccc3nc(NC(=O)Nc4ccc(Cl)c(Cl)c4)sc3c2)ccn1 label_class="group A"

// query Category of `CNC(=O)c1cc(Oc2ccc3nc(NC(=O)Nc4ccc(Cl)cc4)sc3c2)ccn1` , please.
// result group B

----------
Listed compounds paired with reported growth at 0.01 µM
# PROCEDURE_TEXT: Antiproliferative activity against human SW620 cells assessed as cell growth at […] M after 48 hrs by sulforhodamine B assay
# Type: functional
# CONDITION_SUMMARY: SW-620, 48 h, read-out: Activity
Numbers only; they are read as %.

cpd_smiles=CNC(=O)c1cc(Oc2ccc3nc(NC(=O)c4cc(C(F)(F)F)cc(C(F)(F)F)c4)sc3c2)ccn1 recorded_endpoint="growth at 0.01 µM" numeric_readout=97
cpd_smiles=CNC(=O)c1cc(Oc2ccc3nc(NC(=O)Nc4ccc(Cl)c(C(F)(F)F)c4)sc3c2)ccn1 recorded_endpoint="growth at 0.01 µM" numeric_readout=100
cpd_smiles=CNC(=O)c1cc(Oc2ccc3nc(NC(=O)Nc4ccc(Cl)c(Cl)c4)sc3c2)ccn1 recorded_endpoint="growth at 0.01 µM" numeric_readout=102

# input for lookup
// query Sample `CNC(=O)c1cc(Oc2ccc3nc(NC(=O)Nc4cc(C(F)(F)F)cc(C(F)(F)F)c4)sc3c2)ccn1` — what was its growth at 0.01 µM?
// result 102

----------
# System: NCI-H522
# PROCEDURE_TEXT: Antiproliferative activity against human NCI-H522 cells assessed as cell growth at 10^-6 M after 48 hrs by sulforhodamine B assay
# Type: functional
# CONDITION_SUMMARY: NCI-H522, 48 h, read-out: Activity
Listed molecules paired with reported growth at 1 µM
Numbers only; they are read as %.

cpd_smiles=CNC(=O)c1cc(Oc2ccc3nc(NC(=O)c4cc(C(F)(F)F)cc(C(F)(F)F)c4)sc3c2)ccn1 system_tested=NCI-H522 recorded_endpoint="growth at 1 µM" numeric_readout=96
cpd_smiles=CNC(=O)c1cc(Oc2ccc3nc(NC(=O)Nc4ccc(Cl)c(Cl)c4)sc3c2)ccn1 system_tested=NCI-H522 recorded_endpoint="growth at 1 µM" numeric_readout=97
cpd_smiles=CNC(=O)c1cc(Oc2ccc3nc(NC(=O)Nc4cc(C(F)(F)F)cc(C(F)(F)F)c4)sc3c2)ccn1 system_tested=NCI-H522 recorded_endpoint="growth at 1 µM" numeric_readout=32

# input for lookup
// query Sample `CNC(=O)c1cc(Oc2ccc3nc(NC(=O)Nc4ccc(Cl)c(C(F)(F)F)c4)sc3c2)ccn1` — what was its growth at 1 µM?
// result 80

----------
# Test system: KM12
# PROCEDURE_TEXT: Antiproliferative activity against human KM12 cells assessed as cell growth at 10^-8 M after 48 hrs by sulforhodamine B assay
# Assay type: functional
# CONDITION_SUMMARY: KM12, 48 h, read-out: Activity
Listed compounds paired with reported growth at 0.01 µM
Hi, when you answer, please include the unit after the number. Thanks!

// worked examples, growth at 0.01 µM included
cpd_smiles=CNC(=O)c1cc(Oc2ccc3nc(NC(=O)Nc4ccc(Cl)c(C(F)(F)F)c4)sc3c2)ccn1 recorded_endpoint="growth at 0.01 µM" result=103%
cpd_smiles=CNC(=O)c1cc(Oc2ccc3nc(NC(=O)c4cc(C(F)(F)F)cc(C(F)(F)F)c4)sc3c2)ccn1 recorded_endpoint="growth at 0.01 µM" result=101%
cpd_smiles=CNC(=O)c1cc(Oc2ccc3nc(NC(=O)Nc4ccc(Cl)c(Cl)c4)sc3c2)ccn1 recorded_endpoint="growth at 0.01 µM" result=98%

# input for lookup
// query Sample `CNC(=O)c1cc(Oc2ccc3nc(NC(=O)Nc4cc(C(F)(F)F)cc(C(F)(F)F)c4)sc3c2)ccn1` — what was its growth at 0.01 µM?
// result 100%

----------
# PROCEDURE_TEXT: Antiproliferative activity against human HOP62 cells assessed as growth inhibition after 48 hrs by sulforhodamine B assay
# Format: functional
# CONDITION_SUMMARY: HOP-62, 48 h
Listed compounds paired with reported GI50
Numbers only; they are read as nM.

// worked examples, GI50 included
compound=CNC(=O)c1cc(Oc2ccc3nc(NC(=O)c4cc(C(F)(F)F)cc(C(F)(F)F)c4)sc3c2)ccn1 numeric_readout=3360
compound="CNC(=O)c1cc(Oc2ccc(NC(=O)Nc3ccc(Cl)c(C(F)(F)F)c3)cc2)ccn1 [SORAFENIB]" numeric_readout=2000
compound=CNC(=O)c1cc(Oc2ccc3nc(NC(=O)Nc4cc(C(F)(F)F)cc(C(F)(F)F)c4)sc3c2)ccn1 numeric_readout=1150
compound=CNC(=O)c1cc(Oc2ccc3nc(NC(=O)Nc4ccc(Cl)c(C(F)(F)F)c4)sc3c2)ccn1 numeric_readout=1940

// query Sample `CNC(=O)c1cc(Oc2ccc3nc(NC(=O)Nc4ccc(Cl)c(Cl)c4)sc3c2)ccn1` — what was its GI50?
// result 2240

----------
# PROCEDURE_TEXT: Antiproliferative activity against human IGROV1 cells assessed as growth inhibition after 48 hrs by sulforhodamine B assay
# Assay type: functional
# CONDITION_SUMMARY: IGROV-1, 48 h
RECORDED_ENDPOINT: GI50 (nM)
Numbers only; they are read as nM.

// worked examples, GI50 included
molecule=CNC(=O)c1cc(Oc2ccc3nc(NC(=O)c4cc(C(F)(F)F)cc(C(F)(F)F)c4)sc3c2)ccn1 unit_abbrev=nM numeric_readout=4260
molecule=CNC(=O)c1cc(Oc2ccc3nc(NC(=O)Nc4ccc(Cl)c(Cl)c4)sc3c2)ccn1 unit_abbrev=nM numeric_readout=2550
molecule=CNC(=O)c1cc(Oc2ccc3nc(NC(=O)Nc4ccc(Cl)c(C(F)(F)F)c4)sc3c2)ccn1 unit_abbrev=nM numeric_readout=2020
molecule="CNC(=O)c1cc(Oc2ccc(NC(=O)Nc3ccc(Cl)c(C(F)(F)F)c3)cc2)ccn1 [SORAFENIB]" unit_abbrev=nM numeric_readout=2510

// query Sample `CNC(=O)c1cc(Oc2ccc3nc(NC(=O)Nc4cc(C(F)(F)F)cc(C(F)(F)F)c4)sc3c2)ccn1` — what was its GI50?
// result 1250

----------
# System: NCI-H23
# PROCEDURE_TEXT: Antiproliferative activity against human NCI-H23 cells assessed as cell growth at 10^-6 M after 48 hrs by sulforhodamine B assay
# Assay type: functional
# CONDITION_SUMMARY: NCI-H23, 48 h, read-out: Activity
Listed compounds paired with reported growth at 1 µM
Numbers only; they are read as %.

// worked examples, growth at 1 µM included
cpd_smiles=CNC(=O)c1cc(Oc2ccc3nc(NC(=O)c4cc(C(F)(F)F)cc(C(F)(F)F)c4)sc3c2)ccn1 recorded_endpoint="growth at 1 µM" numeric_readout=89
cpd_smiles=CNC(=O)c1cc(Oc2ccc3nc(NC(=O)Nc4ccc(Cl)c(Cl)c4)sc3c2)ccn1 recorded_endpoint="growth at 1 µM" numeric_readout=88
cpd_smiles=CNC(=O)c1cc(Oc2ccc3nc(NC(=O)Nc4ccc(Cl)c(C(F)(F)F)c4)sc3c2)ccn1 recorded_endpoint="growth at 1 µM" numeric_readout=88

// query Sample `CNC(=O)c1cc(Oc2ccc3nc(NC(=O)Nc4cc(C(F)(F)F)cc(C(F)(F)F)c4)sc3c2)ccn1` — what was its growth at 1 µM?
// result 36

----------
Listed molecules paired with reported growth at 0.01 µM
# System: 786-0
# PROCEDURE_TEXT: Antiproliferative activity against human 786-0 cells assessed as cell growth at 10^-8 M after 48 hrs by sulforhodamine B assay
# Format: functional
# CONDITION_SUMMARY: 786-0, 48 h, read-out: Activity
Numbers only; they are read as %.

cpd_smiles=CNC(=O)c1cc(Oc2ccc3nc(NC(=O)Nc4ccc(Cl)c(C(F)(F)F)c4)sc3c2)ccn1 numeric_readout=97
cpd_smiles=CNC(=O)c1cc(Oc2ccc3nc(NC(=O)c4cc(C(F)(F)F)cc(C(F)(F)F)c4)sc3c2)ccn1 numeric_readout=98
cpd_smiles=CNC(=O)c1cc(Oc2ccc3nc(NC(=O)Nc4cc(C(F)(F)F)cc(C(F)(F)F)c4)sc3c2)ccn1 numeric_readout=92

# input for lookup
// query Sample `CNC(=O)c1cc(Oc2ccc3nc(NC(=O)Nc4ccc(Cl)c(Cl)c4)sc3c2)ccn1` — what was its growth at 0.01 µM?
// result 95
